- Test system: J774 A.1 cells
- experiment: FACS competition assay: FITC-rBAG3 binding to J774 A.1 cells with BAG3 peptides or F(ab′)2 fragments
- Assay type: cell-based, murine
- testContext: 14 nM FITC-BAG3, 625 nM of BAG3 peptides
quantityKind: Competiton assays % of positive cells (±S.D.)

Example entries begin here.
{"sequenceString": "DKGKKNAGNAEDPHT (listed as Homo sapiens) [Pep3, 13]", "valueMeasured": "5.86 (±0.43) %"}
{"sequenceString": "DRDPLPPGWEIKIDPQ (listed as Homo sapiens) [Pep1, 11]", "valueMeasured": "0.18 (±0.05) %"}
{"sequenceString": "SSPKSVATEERAAPS (listed as Homo sapiens) [Pep2, 12]", "valueMeasured": "1.21 (±0.63) %"}

Kindly consider the entry below.
Request: Enter reported Competiton assays % of positive cells (±S.D.) observed with J774 A.1 cells for NPSSMTDTPGNPAAP (listed as Homo sapiens) [Pep4, 14]
Result: 0.68 (±0.20) %

Measured values drawn from patent US10359433B2 for this set.
